System: SK-MEL-28 melanoma
ASSAY METHOD TEXT: NCI tumour cell line growth inhibition, 48 h; in the data active = GI50 below about 0.43 µM; inactive = the rest
Bench note: report the call from active, inactive

Some entries whose results are on file:
CCCCCCCCCCCCC(O)c1ccc(C#CCCCCCCCCCO)o1 (stereo unspecified) | inactive
O=C1c2cc3c(cc2-c2c1c1ccc(F)cc1c(=O)n2C[C@H](O)[C@@H](O)[C@H](O)CO)OCO3 | active
Nc1ccc(C2=NNC(=O)Cc3cc4c(cc32)OCCO4)cc1Cl | inactive

How was COc1ccc2[nH]cc(/C=C(/C)c3ccncc3)c2c1 classified in this test?
inactive

How was CCN(Cc1ccc(F)cc1)c1cc(Cl)c(CO)c(Cl)c1 classified in this test?
inactive

How was COc1ccc(C2[C@@H](c3ccccc3)C(=O)N2c2cc(OC)c(OC)c(OC)c2)cc1F (stereo partly specified) classified in this test?
inactive
